The reader will find reported MIC values listed item by item below.
Tested on: Candida albicans
Assay: Antifungal activity against Candida albicans SC5314 after 48 hrs
Type: functional
Conditions: SC5314, 48 h
Peptide text beside a SMILES is read from it.
measuredAttribute: MIC (µM)

compound | readoutUnit | readoutRelation | number
CC(=O)N[C@@H](Cc1ccc(O)cc1)C(=O)N[C@@H](CC(C)C)C(=O)N[C@@H](Cc1ccccc1)C(=O)N[C@H](C=O)CC(C)C (Ac-YLFL-aldehyde) | µM | > | 100
CC(=O)N[C@@H](CC(C)C)C(=O)N[C@@H](CC(C)C)C(=O)N[C@H](C=O)CC(C)C (Ac-Leu-Leu-Leu-aldehyde) | µM | > | 100
C[C@@H]1[C@H](O)[C@@H](C)/C=C/C=C/C=C/C=C/C=C/C=C/C=C/[C@H](O[C@@H]2O[C@H](C)[C@@H](O)[C@H](N)[C@@H]2O)C[C@@H]2O[C@](O)(C[C@@H](O)C[C@@H](O)[C@H](O)CC[C@@H](O)C[C@@H](O)CC(=O)O[C@H]1C)C[C@H](O)[C@H]2C(=O)O | µM | = | 1.56
CC(=O)N[C@@H](Cc1ccc(O)cc1)C(=O)NCC(=O)N[C@@H](CCCNC(=N)N)C(=O)N[C@@H](CCCCN)C(=O)N[C@@H](CCCCN)C(=O)N[C@@H](CCCNC(=N)N)C(=O)N[C@@H](CCCNC(=N)N)C(=O)N[C@@H](CCC(N)=O)C(=O)N[C@@H](CCCNC(=N)N)C(=O)N[C@@H](CCCNC(=N)N)C(=O)N[C@@H](CCCNC(=N)N)C(=O)NCC(=O)NCC(=O)NCC(=O)N[C@@H](Cc1ccc(O)cc1)C(=O)N[C@@H](CC(C)C)C(=O)N[C@@H](Cc1ccccc1)C(=O)N[C@H](C=O)CC(C)C (Ac-YGRKKRRQRRRGGGYLFL-aldehyde) | µM | = | 15.6
CC(=O)N[C@@H](Cc1ccc(O)cc1)C(=O)NCC(=O)N[C@@H](CCCNC(=N)N)C(=O)N[C@@H](CCCCN)C(=O)N[C@@H](CCCCN)C(=O)N[C@@H](CCCNC(=N)N)C(=O)N[C@@H](CCCNC(=N)N)C(=O)N[C@@H](CCC(N)=O)C(=O)N[C@@H](CCCNC(=N)N)C(=O)N[C@@H](CCCNC(=N)N)C(=O)N[C@@H](CCCNC(=N)N)C(=O)NCC(=O)NCC(=O)NCC(=O)N[C@@H](CC(C)C)C(=O)N[C@@H](CC(C)C)C(=O)N[C@H](C=O)CC(C)C (Ac-YGRKKRRQRRRGGGLLL-aldehyde) | µM | = | 31.2
